Origin of the recorded values: patent US20230017532A1

- Test system: Acinetobacter baumannii ATCC17978
- Method Summary: Antimicrobial susceptibility testing: 90% growth inhibitory concentration (IC90) determination, Iso-Sensitest broth, OD 600 nm
- Format: cell-based
- Assay Conditions: Acinetobacter baumannii, ATCC17978, 16 h, 90% growth inhibitory concentration, Acinetobacter baumannii ATCC17978, Iso-Sensitest broth, OD 600 nm over 16 h; read-out: ATCC 17978 IC90
Structures can show the parent of a compound that is named as a salt.
Measurement Name: IC90 (nM)

Molecule	Target Of Assay	Output Unit	Result Value
CCc1cc(Nc2nccn3c(-c4ccc(OC)c(F)c4F)cnc23)ccc1C(=O)NCCCNCC[C@H](N)C(=O)O [Example 183]	Acinetobacter baumannii ATCC17978	nM	660
COc1ccc(-c2cnc3c(Nc4ccc(C(=O)N(C)CCOCCN5CCNCC5)c(C)c4)nccn23)cc1F [Example 131]	Acinetobacter baumannii ATCC17978	nM	770
COc1ccc(-c2cnc3c(Nc4ccc(C(=O)NCCOCCN)c(Cl)c4)nccn23)cc1 [Example 6, hydrochloride]	Acinetobacter baumannii ATCC17978	nM	120
Cc1cc(Nc2nccn3c(-c4ccc(Cl)c(F)c4F)cnc23)ccc1C(=O)NCCNCCN [Example 122, hydrochloride]	Acinetobacter baumannii ATCC17978	nM	620
CCc1cc(Nc2nccn3c(-c4ccc(Cl)c(F)c4F)cnc23)ccc1C(=O)NCCOCCNCCO [Example 92]	Acinetobacter baumannii ATCC17978	nM	260
CCc1cc(Nc2nccn3c(-c4ccc(OC)c(F)c4F)cnc23)ccc1C(=O)NCCNCCO [Example 196, hydrochloride]	Acinetobacter baumannii ATCC17978	nM	290
CNC(=O)COCCNC(=O)c1ccc(Nc2nccn3c(-c4ccc(OC(F)F)cc4)cnc23)cc1C [Example 11]	Acinetobacter baumannii ATCC17978	nM	160
